System: HARA (Squamous Cell Lung Carcinoma)
Test: Bliss excess, mean over the matrix (fraction); higher = more synergy
Exercise: for every item that follows, state its recorded Bliss excess.

Query: Please give the measured Bliss excess for this compound: C=CCn1c(=O)c2cnc(Nc3ccc(N4CCN(C)CC4)cc3)nc2n1-c1cccc(C(C)(C)O)n1 [AZD1775] + Nc1ccn([C@@H]2O[C@H](CO)[C@@H](O)C2(F)F)c(=O)n1 [Gemcitabine] (first compound max 1 µM, partner max 0.3 µM)
Result: 0.0187

Query: Quick one: Bliss excess for O=C(c1cc(Cc2n[nH]c(=O)c3ccccc23)ccc1F)N1CCN(C(=O)C2CC2)CC1 [Olaparib] + CN(CC[C@H](CSC1=CC=CC=C1)NC2=C(C=C(C=C2)S(=O)(=O)NC(=O)C3=CC=C(C=C3)N4CCC(CC4)[C@H](C5=CC=CC=C5C6=CC=C(C=C6)Cl)O)S(=O)(=O)C(F)(F)F)CCO [AZD4320] (first compound max 10 µM, 7x7, partner max 1 µM) ?
Result: -0.0379

Query: Which Bliss excess reading was recorded for the compound Cc1c2c(nn1C)CSCc1cc(n(C)n1)CSc1cc(c3ccccc3c1)OCCCc1c(C(=O)O)n(C)c3c-2c(Cl)ccc13 [AZD5991] + CS(=O)(=O)CCNCc1ccc(-c2ccc3ncnc(Nc4ccc(OCc5cccc(F)c5)c(Cl)c4)c3c2)o1 [Lapatinib] (first compound max 1 µM, 7x7, partner max 10 µM) ?
Result: 0.0632

---

Test system: RT-112 (Bladder Carcinoma)
Assay: Bliss excess, mean over the matrix (fraction); higher = more synergy
Response key: label 1 means Bliss excess >= -0.03; label 0 means Bliss excess < -0.03.

Query: Tell me whether Bliss excess is at least -0.03 here: CN(C)CCCOc1ccc(-c2ccc3ncc4c(c3c2)n(C2CCOCC2)c(=O)n4C)cn1 [AZD0156] + CCN(CCO)CCCOc1ccc2c(Nc3cc(CC(=O)Nc4cccc(F)c4)[nH]n3)ncnc2c1 [AZD2811] (first compound max 1 µM, 7x7, partner max 1 µM)
Result: label 1

Query: Identify whether the reported Bliss excess of the following compound is -0.03 or greater: COc1cccc(OCCCN)c1-c1cc(Nc2cnc(C#N)cn2)n[nH]1 [Prexasertib] + Cc1cc2ncnn2cc1Nc1ncc2c(n1)n(C1CCOCC1)c(=O)n2C [AZD7648] (first compound max 1 µM, 7x7, partner max 10 µM)
Result: label 0

Query: Does the compound Cn1cnc2c(F)c(Nc3ccc(Br)cc3Cl)c(C(=O)NOCCO)cc21 [Selumetinib] + C[C@@H]1COCCN1C2=NC(=NC(=C2)C3(CC3)[S@](=N)(=O)C)C4=C5C=CNC5=NC=C4 [AZD6738] (first compound max 10 µM, 7x7, partner max 10 µM) have recorded Bliss excess that is -0.03 or more?
Result: label 1

Query: Does the compound CC(=O)c1c(C)c2cnc(Nc3ccc(N4CCNCC4)cn3)nc2n(C2CCCC2)c1=O [Palbociclib] + Cn1cnc2c(F)c(Nc3ccc(Br)cc3Cl)c(C(=O)NOCCO)cc21 [Selumetinib] (first compound max 10 µM, 7x7, partner max 10 µM) have recorded Bliss excess that is -0.03 or more?
Result: label 0

Query: Would you say CN(CCO)CC[C@H](CSc1ccccc1)Nc1ccc(S(=O)(=O)NC(=O)c2ccc(N3CCC([C@@H](O)c4ccccc4-c4ccc(Cl)cc4)CC3)cc2)cc1S(=O)(=O)C(F)(F)F [AZD4320] + C[C@@H](Nc1cc(F)cc(F)c1)c1cc(C(=O)N(C)C)cc2c(=O)cc(N3CCOCC3)oc12 [AZD8186] (first compound max 1 µM, 7x7, partner max 3 µM) shows Bliss excess at minimum -0.03?
Result: label 1

Query: Decide: Bliss excess of Cc1c2c(nn1C)CSCc1cc(n(C)n1)CSc1cc(c3ccccc3c1)OCCCc1c(C(=O)O)n(C)c3c-2c(Cl)ccc13 [AZD5991] + C=CCn1c(=O)c2cnc(Nc3ccc(N4CCN(C)CC4)cc3)nc2n1-c1cccc(C(C)(C)O)n1 [AZD1775] (first compound max 1 µM, partner max 1 µM) >= -0.03?
Result: label 1

Query: Form field: Bliss excess at least -0.03? Entry: Cc1cc2ncnn2cc1Nc1ncc2c(n1)n(C1CCOCC1)c(=O)n2C [AZD7648] + COc1cc([C@@H]2c3cc4c(cc3[C@@H](O[C@@H]3O[C@@H]5CO[C@@H](C)O[C@H]5[C@H](O)[C@H]3O)[C@H]3COC(=O)[C@H]23)OCO4)cc(OC)c1O [Etoposide] (first compound max 10 µM, 7x7, partner max 10 µM)
Result: label 1

Query: hey, is Bliss excess for this one >= -0.03? CS(=O)(=O)CCNCc1ccc(-c2ccc3ncnc(Nc4ccc(OCc5cccc(F)c5)c(Cl)c4)c3c2)o1 [Lapatinib] + Cn1cnc2c(F)c(Nc3ccc(Br)cc3Cl)c(C(=O)NOCCO)cc21 [Selumetinib] (first compound max 10 µM, 7x7, partner max 10 µM)
Result: label 1

Query: Please check the record CC1(C)CCC(CN2CCN(c3ccc(C(=O)NS(=O)(=O)c4ccc(NCC5CCOCC5)c([N+](=O)[O-])c4)c(Oc4cnc5[nH]ccc5c4)c3)CC2)=C(c2ccc(Cl)cc2)C1 [Venetoclax] + C1CN(CCC1(C(=O)N[C@@H](CCO)C2=CC=C(C=C2)Cl)N)C3=NC=NC4=C3C=CN4 [Capivasertib] (first compound max 1 µM, 7x7, partner max 3 µM) and state if its Bliss excess is at or above -0.03.
Result: label 0

Query: Please tell me: is the compound Cc1nc(Nc2ncc(C(=O)Nc3c(C)cccc3Cl)s2)cc(N2CCN(CCO)CC2)n1 [Dasatinib] + CC(=O)Nc1cccc(-n2c(=O)n(C3CC3)c(=O)c3c(Nc4ccc(I)cc4F)n(C)c(=O)c(C)c32)c1 [Trametinib] (first compound max 2 µM, 7x7, partner max 1 µM) at or over -0.03 in terms of Bliss excess?
Result: label 0

Query: Determine whether measured Bliss excess meets or exceeds -0.03 for CC1(C)CCC(CN2CCN(c3ccc(C(=O)NS(=O)(=O)c4ccc(NCC5CCOCC5)c([N+](=O)[O-])c4)c(Oc4cnc5[nH]ccc5c4)c3)CC2)=C(c2ccc(Cl)cc2)C1 [Venetoclax] + CS(=O)(=O)CCNCc1ccc(-c2ccc3ncnc(Nc4ccc(OCc5cccc(F)c5)c(Cl)c4)c3c2)o1 [Lapatinib] (first compound max 1 µM, 7x7, partner max 10 µM)
Result: label 0

Query: Please indicate if the recorded Bliss excess for CC1(C)CCC(CN2CCN(c3ccc(C(=O)NS(=O)(=O)c4ccc(NCC5CCOCC5)c([N+](=O)[O-])c4)c(Oc4cnc5[nH]ccc5c4)c3)CC2)=C(c2ccc(Cl)cc2)C1 [Venetoclax] + Cn1cnc2c(F)c(Nc3ccc(Br)cc3Cl)c(C(=O)NOCCO)cc21 [Selumetinib] (first compound max 1 µM, 7x7, partner max 3 µM) meets or exceeds -0.03.
Result: label 1

Query: Evaluate CCN(CCO)CCCOc1ccc2c(Nc3cc(CC(=O)Nc4cccc(F)c4)[nH]n3)ncnc2c1 [AZD2811] + C[C@@H]1COCCN1C2=NC(=NC(=C2)C3(CC3)[S@](=N)(=O)C)C4=C5C=CNC5=NC=C4 [AZD6738] (first compound max 1 µM, 7x7, partner max 10 µM) : Bliss excess at minimum -0.03?
Result: label 0

---

System: SH-4 (Melanoma)
Test: combination Emax (second highest fraction inhibited in the dose matrix, 72 h); higher = more inhibition; extreme values may be limits of the assay
quantityName: combination Emax

Query: Entry under review: Cc1c2c(nn1C)CSCc1cc(n(C)n1)CSc1cc(c3ccccc3c1)OCCCc1c(C(=O)O)n(C)c3c-2c(Cl)ccc13 [AZD5991] + C[C@@H]1COCCN1C2=NC(=NC(=C2)C3(CC3)[S@](=N)(=O)C)C4=C5C=CNC5=NC=C4 [AZD6738] (first compound max 1 µM, 7x7, partner max 10 µM) . Reported combination Emax?
Result: 0.422

Query: combination Emax for CN(C)CCCOc1ccc(-c2ccc3ncc4c(c3c2)n(C2CCOCC2)c(=O)n4C)cn1 [AZD0156] + O=C(c1cc(Cc2n[nH]c(=O)c3ccccc23)ccc1F)N1CCN(C(=O)C2CC2)CC1 [Olaparib] (first compound max 3 µM, partner max 3 µM) ?
Result: 0.327

Query: Recorded combination Emax of CCc1c2c(nc3ccc(O)cc13)-c1cc3c(c(=O)n1C2)COC(=O)[C@]3(O)CC [SN-38] + CN(C)CCCOc1ccc(-c2ccc3ncc4c(c3c2)n(C2CCOCC2)c(=O)n4C)cn1 [AZD0156] (first compound max 0.3 µM, 7x7, partner max 1 µM) , please.
Result: 0.27

Query: combination Emax for C=CCn1c(=O)c2cnc(Nc3ccc(N4CCN(C)CC4)cc3)nc2n1-c1cccc(C(C)(C)O)n1 [AZD1775] + C1CN(CCC1(C(=O)N[C@@H](CCO)C2=CC=C(C=C2)Cl)N)C3=NC=NC4=C3C=CN4 [Capivasertib] (first compound max 3 µM, partner max 3 µM) ?
Result: 0.715

Query: combination Emax for COc1cccc(OCCCN)c1-c1cc(Nc2cnc(C#N)cn2)n[nH]1 [Prexasertib] + Cc1cc2ncnn2cc1Nc1ncc2c(n1)n(C1CCOCC1)c(=O)n2C [AZD7648] (first compound max 1 µM, 7x7, partner max 10 µM) ?
Result: 0.709

Query: # combination Emax lookup, item CC1(C)CCC(CN2CCN(c3ccc(C(=O)NS(=O)(=O)c4ccc(NCC5CCOCC5)c([N+](=O)[O-])c4)c(Oc4cnc5[nH]ccc5c4)c3)CC2)=C(c2ccc(Cl)cc2)C1 [Venetoclax] + Cn1cnc2c(F)c(Nc3ccc(Br)cc3Cl)c(C(=O)NOCCO)cc21 [Selumetinib] (first compound max 1 µM, 7x7, partner max 3 µM)
Result: 0.872

Query: What combination Emax value was documented for this compound, Cc1c2c(nn1C)CSCc1cc(n(C)n1)CSc1cc(c3ccccc3c1)OCCCc1c(C(=O)O)n(C)c3c-2c(Cl)ccc13 [AZD5991] + CN(C)CCCOc1ccc(-c2ccc3ncc4c(c3c2)n(C2CCOCC2)c(=O)n4C)cn1 [AZD0156] (first compound max 1 µM, 7x7, partner max 1 µM) ?
Result: 0.316
